Measured values drawn from the supplement of paper PMC12338614 for this set.

Recorded measurements of STK11 functional score, one per entry
B1: library; numbered along this chain (parent)
chain: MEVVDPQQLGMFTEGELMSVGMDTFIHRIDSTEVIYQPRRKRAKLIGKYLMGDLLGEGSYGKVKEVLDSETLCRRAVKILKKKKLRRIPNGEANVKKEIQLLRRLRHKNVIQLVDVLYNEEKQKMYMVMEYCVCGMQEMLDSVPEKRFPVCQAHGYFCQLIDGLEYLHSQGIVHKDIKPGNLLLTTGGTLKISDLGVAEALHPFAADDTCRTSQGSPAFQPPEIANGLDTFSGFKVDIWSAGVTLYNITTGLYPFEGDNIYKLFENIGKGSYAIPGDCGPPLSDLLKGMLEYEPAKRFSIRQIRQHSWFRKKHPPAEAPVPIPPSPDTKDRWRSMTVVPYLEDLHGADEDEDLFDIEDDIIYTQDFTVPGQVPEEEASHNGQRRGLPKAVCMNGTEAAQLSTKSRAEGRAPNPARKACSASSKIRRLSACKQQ

Variants of: B1
TEST NAME: STK11 functional score (HeLa growth suppression), rescaled enrichment; synonymous median = 1, nonsense median = 0 (normalised score)
EXPERIMENTAL SETUP: with HeLa; variant type: missense
// keep it numeric: no unit symbol after the value

Examples with their reported STK11 functional score follow.
{"MUTATIONS": "R103E", "ENDPOINT RESULT": 1.68}
{"MUTATIONS": "L54Y", "ENDPOINT RESULT": 1.47}
{"MUTATIONS": "S31V", "ENDPOINT RESULT": 1.58}
{"MUTATIONS": "M127G", "ENDPOINT RESULT": 0.516}
{"MUTATIONS": "I35T", "ENDPOINT RESULT": 1.34}
{"MUTATIONS": "T249N", "ENDPOINT RESULT": 0.652}
{"MUTATIONS": "I361H", "ENDPOINT RESULT": 1.21}
{"MUTATIONS": "M127E", "ENDPOINT RESULT": 1.59}
{"MUTATIONS": "G91F", "ENDPOINT RESULT": 0.906}
{"MUTATIONS": "Y118V", "ENDPOINT RESULT": 0.988}

May I ask what STK11 functional score has been recorded for "K108R" ?
1.33

How about "K41T" ?
1.27

Okay, and "R297F" ?
-0.355

Now give it for "L286R" too.
-0.117

What about this variant? "C210D"
1.37

And what about the variant "L344Y" ?
0.904

Try the variant "M139L"
1.2

Likewise for "R86W" ?
0.178

Item: "R304L"
1.06

Also "I356A" ?
1.5

Next entry: "E65G"
0.154

What do you have for "L67G" ?
0.725

// next record "C391H"
1.46
